- MEASUREMENT_TARGET: PKR(G332S) (Homo sapiens, UniProt P30613, G332S)
- Sequence (P30613 whole entry G332S): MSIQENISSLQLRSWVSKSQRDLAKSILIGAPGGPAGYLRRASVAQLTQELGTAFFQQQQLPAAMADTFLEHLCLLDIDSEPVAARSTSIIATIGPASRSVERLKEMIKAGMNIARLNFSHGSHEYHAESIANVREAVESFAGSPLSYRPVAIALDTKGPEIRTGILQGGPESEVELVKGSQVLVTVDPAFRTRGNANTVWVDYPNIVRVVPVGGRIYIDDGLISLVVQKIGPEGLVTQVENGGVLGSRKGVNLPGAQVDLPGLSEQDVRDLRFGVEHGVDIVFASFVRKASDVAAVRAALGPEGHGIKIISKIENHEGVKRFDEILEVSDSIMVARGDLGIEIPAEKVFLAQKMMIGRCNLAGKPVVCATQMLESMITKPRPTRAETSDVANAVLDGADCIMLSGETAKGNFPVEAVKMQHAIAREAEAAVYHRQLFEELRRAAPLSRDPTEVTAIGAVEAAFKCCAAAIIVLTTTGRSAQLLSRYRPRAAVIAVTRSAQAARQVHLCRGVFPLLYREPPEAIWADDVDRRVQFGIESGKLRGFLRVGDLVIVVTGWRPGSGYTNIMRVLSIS
- EXPERIMENT_NOTES: Luminescence Assay (Kinase Glo Plus), PKR G332S
- Type: biochemical
- EXPERIMENTAL_CONDITIONS: read-out: AC50 (PKRG332S)
VALUE_TYPE: AC50

Ask: For the compound O=C([C@H](CO)c1ccccc1)N1CC2=C(C1)CN(S(=O)(=O)c1cnc3c(c1)OCCO3)C2 (single isomer, unassigned) , what AC50 is on record?
Reply: 0.1 to 1 µM

Ask: Value lookup for AC50; key = O=C([C@H](O)c1cccnc1)N1CC2=C(C1)CN(S(=O)(=O)c1cnc3c(c1)OCCO3)C2
Reply: 0.1 to 1 µM

Ask: State the recorded AC50 for this entry: O=C(c1cn[nH]c1-c1ccccc1)N1CC2=C(C1)CN(S(=O)(=O)c1ccc3c(c1)OCCO3)C2
Reply: > 40 µM

Data provenance is patent US20200405699A1.
